- Test system: NCI-H1437
- EXPERIMENTAL_PROTOCOL: relative viability (nuclei count vs DMSO), 5 days (fraction); higher = more cells survive
- APPLIED_CONDITIONS: first compound 0.4 µM
Field: relative viability. Provide a value for each of the compounds that follow.
Give bare numbers.

C[C@@H]1CN(CC(=O)Nc2ccc3c(c2)Cc2cccc(-c4cc(=O)cc(N5CCOCC5)o4)c2S3)C[C@H](C)O1 + NC(=O)Nc1cc(-c2cccc(F)c2)sc1C(=O)N[C@H]1CCCNC1 [AZD7762] (partner 0.2 µM) ... 1.12
C[C@@H]1CN(CC(=O)Nc2ccc3c(c2)Cc2cccc(-c4cc(=O)cc(N5CCOCC5)o4)c2S3)C[C@H](C)O1 + Nc1ncn([C@H]2C[C@H](O)[C@@H](CO)O2)c(=O)n1 [Decitabine] (partner 2 µM) ... 0.625

Okay, here is my list. What is relative viability for each of these?
1. C[C@@H]1CN(CC(=O)Nc2ccc3c(c2)Cc2cccc(-c4cc(=O)cc(N5CCOCC5)o4)c2S3)C[C@H](C)O1 + CS(=O)(=O)N1CCN(Cc2cc3nc(-c4cccc5[nH]ncc45)nc(N4CCOCC4)c3s2)CC1 [Pictilisib] (partner 1 µM)
2. COc1cc(N2CCC(C(N)=O)CC2)ccc1Nc1nc(N)c(Cl)c(Nc2ccccc2S(=O)(=O)C(C)C)n1 [HG-5-88-01] + COc1cc2c(Oc3ccc(NC(=O)C4(C(=O)Nc5ccc(F)cc5)CC4)cc3F)ccnc2cc1OCCCN1CCOCC1 [Foretinib] (partner 0.25 µM)
3. Clc1ccc(Nc2nnc(Cc3ccncc3)c3ccccc23)cc1 [Vatalanib] + CS(=O)(=O)N1CCN(Cc2cc3nc(-c4cccc5[nH]ncc45)nc(N4CCOCC4)c3s2)CC1 [Pictilisib] (partner 1 µM)
4. COc1cc(N2CCC(C(N)=O)CC2)ccc1Nc1nc(N)c(Cl)c(Nc2ccccc2S(=O)(=O)C(C)C)n1 [HG-5-88-01] + N=C(N)NC(=N)NCCc1ccccc1 [Phenformin] (partner 250 µM)

0.339
0.912
0.518
0.466

----------
- Test system: NCI-H322M
- EXPERIMENTAL_PROTOCOL: relative viability (nuclei count vs DMSO), 5 days (fraction); higher = more cells survive
- APPLIED_CONDITIONS: first compound 0.4 µM
MEASURE_NAME: relative viability
Numbers only.

Previously resolved entries follow.
Clc1ccc(Nc2nnc(Cc3ccncc3)c3ccccc23)cc1 [Vatalanib] + Cc1cc(Nc2cc(N3CCN(C)CC3)nc(Sc3ccc(NC(=O)C4CC4)cc3)n2)n[nH]1 [Tozasertib] (partner 0.1 µM) ... 0.553
Clc1ccc(Nc2nnc(Cc3ccncc3)c3ccccc23)cc1 [Vatalanib] + CS(=O)(=O)N1CCN(Cc2cc3nc(-c4cccc5[nH]ncc45)nc(N4CCOCC4)c3s2)CC1 [Pictilisib] (partner 1 µM) ... 0.555
C[C@@H]1CN(CC(=O)Nc2ccc3c(c2)Cc2cccc(-c4cc(=O)cc(N5CCOCC5)o4)c2S3)C[C@H](C)O1 + N=C(N)NC(=N)NCCc1ccccc1 [Phenformin] (partner 250 µM) ... 0.729

Okay, now this compound:
Give the measured relative viability of C[C@@H]1CN(CC(=O)Nc2ccc3c(c2)Cc2cccc(-c4cc(=O)cc(N5CCOCC5)o4)c2S3)C[C@H](C)O1 + CC(=O)c1c(C)c2cnc(Nc3ccc(N4CCNCC4)cn3)nc2n(C2CCCC2)c1=O [Palbociclib] (partner 0.5 µM) .
0.506

----------
- System: CAL-12T
- EXPERIMENTAL_PROTOCOL: relative viability (nuclei count vs DMSO), 5 days (fraction); higher = more cells survive
- APPLIED_CONDITIONS: first compound 0.3162 µM
MEASURE_NAME: relative viability
One number for each entry.

Previously resolved entries follow.
CC(C)Oc1cc(Nc2nc(N[C@@H](C)c3ccc(F)cn3)ncc2Cl)n[nH]1 [AZ23] + COc1cccc2cc(-c3nc([C@H]4CC[C@H](C(=O)O)CC4)n4ncnc(N)c34)[nH]c12 [OSI-027] (partner 0.5 µM) ... 0.778
CC(C)Oc1cc(Nc2nc(N[C@@H](C)c3ccc(F)cn3)ncc2Cl)n[nH]1 [AZ23] + NC(=O)Nc1cc(-c2cccc(F)c2)sc1C(=O)N[C@H]1CCCNC1 [AZD7762] (partner 0.2 µM) ... 0.717
CC(C)Oc1cc(Nc2nc(N[C@@H](C)c3ccc(F)cn3)ncc2Cl)n[nH]1 [AZ23] + C[C@]1(O)C[C@@H](c2nc(-c3ccc4ccc(-c5ccccc5)nc4c3)c3c(N)nccn32)C1 [Linsitinib] (partner 1 µM) ... 0.861
CC(C)Oc1cc(Nc2nc(N[C@@H](C)c3ccc(F)cn3)ncc2Cl)n[nH]1 [AZ23] + C[C@@H](Oc1cc(-c2cnn(C3CCNCC3)c2)cnc1N)c1c(Cl)ccc(F)c1Cl [Crizotinib] (partner 1 µM) ... 0.583
CC(C)Oc1cc(Nc2nc(N[C@@H](C)c3ccc(F)cn3)ncc2Cl)n[nH]1 [AZ23] + COc1cc2c(Oc3ccc(NC(=O)C4(C(=O)Nc5ccc(F)cc5)CC4)cc3F)ccnc2cc1OCCCN1CCOCC1 [Foretinib] (partner 0.25 µM) ... 0.884
CC(C)Oc1cc(Nc2nc(N[C@@H](C)c3ccc(F)cn3)ncc2Cl)n[nH]1 [AZ23] + CC(C)C[C@H](NC(=O)[C@H](Cc1ccccc1)NC(=O)c1cnccn1)B(O)O [Bortezomib] (partner 0.002 µM) ... 0.876

Give the measured relative viability of CC(C)Oc1cc(Nc2nc(N[C@@H](C)c3ccc(F)cn3)ncc2Cl)n[nH]1 [AZ23] + O=C(CCCCCCC(=O)Nc1ccccc1)NO [Vorinostat] (partner 1 µM) .
0.88

----------
- System: HCC-78
- EXPERIMENTAL_PROTOCOL: relative viability (nuclei count vs DMSO), 5 days (fraction); higher = more cells survive
- APPLIED_CONDITIONS: first compound 0.04 µM
Field: relative viability. Provide a value for each of the molecules that follow.
Numbers only.

C[C@@H]1CN(CC(=O)Nc2ccc3c(c2)Cc2cccc(-c4cc(=O)cc(N5CCOCC5)o4)c2S3)C[C@H](C)O1 + C[C@@H](Oc1cc(-c2cnn(C3CCNCC3)c2)cnc1N)c1c(Cl)ccc(F)c1Cl [Crizotinib] (partner 1 µM) ... 0.344
COc1cc(N2CCC(C(N)=O)CC2)ccc1Nc1nc(N)c(Cl)c(Nc2ccccc2S(=O)(=O)C(C)C)n1 [HG-5-88-01] + Nc1nc2[nH]cc(CCc3ccc(C(=O)N[C@@H](CCC(=O)O)C(=O)O)cc3)c2c(=O)[nH]1 [Pemetrexed] (partner 0.2 µM) ... 0.824
C[C@@H]1CN(CC(=O)Nc2ccc3c(c2)Cc2cccc(-c4cc(=O)cc(N5CCOCC5)o4)c2S3)C[C@H](C)O1 + COc1cc2c(Oc3ccc(NC(=O)C4(C(=O)Nc5ccc(F)cc5)CC4)cc3F)ccnc2cc1OCCCN1CCOCC1 [Foretinib] (partner 0.25 µM) ... 0.554

Okay, now this molecule:
Give the measured relative viability of C[C@@H]1CN(CC(=O)Nc2ccc3c(c2)Cc2cccc(-c4cc(=O)cc(N5CCOCC5)o4)c2S3)C[C@H](C)O1 + Cc1nc(Nc2ncc(C(=O)Nc3c(C)cccc3Cl)s2)cc(N2CCN(CCO)CC2)n1 [Dasatinib] (partner 0.075 µM) .
0.366

----------
Field: relative viability. Provide a value for each of the compounds that follow.
- System: NCI-H1395
- EXPERIMENTAL_PROTOCOL: relative viability (nuclei count vs DMSO), 5 days (fraction); higher = more cells survive
- APPLIED_CONDITIONS: first compound 4 µM

C[C@@H]1CN(CC(=O)Nc2ccc3c(c2)Cc2cccc(-c4cc(=O)cc(N5CCOCC5)o4)c2S3)C[C@H](C)O1 + C[C@]1(O)C[C@@H](c2nc(-c3ccc4ccc(-c5ccccc5)nc4c3)c3c(N)nccn32)C1 [Linsitinib] (partner 1 µM) ... 0.953

Okay, here is my list. What is relative viability for each of these?
1. COc1cc(N2CCC(C(N)=O)CC2)ccc1Nc1nc(N)c(Cl)c(Nc2ccccc2S(=O)(=O)C(C)C)n1 [HG-5-88-01] + CC(=O)c1c(C)c2cnc(Nc3ccc(N4CCNCC4)cn3)nc2n(C2CCCC2)c1=O [Palbociclib] (partner 0.5 µM)
2. COc1cc(N2CCC(C(N)=O)CC2)ccc1Nc1nc(N)c(Cl)c(Nc2ccccc2S(=O)(=O)C(C)C)n1 [HG-5-88-01] + Cc1nc(NC(=O)N2CCC[C@H]2C(N)=O)sc1-c1ccnc(C(C)(C)C(F)(F)F)c1 [Alpelisib] (partner 2 µM)
3. Clc1ccc(Nc2nnc(Cc3ccncc3)c3ccccc23)cc1 [Vatalanib] + Cc1nc(Nc2ncc(C(=O)Nc3c(C)cccc3Cl)s2)cc(N2CCN(CCO)CC2)n1 [Dasatinib] (partner 0.075 µM)
4. COc1cc(N2CCC(C(N)=O)CC2)ccc1Nc1nc(N)c(Cl)c(Nc2ccccc2S(=O)(=O)C(C)C)n1 [HG-5-88-01] + NC(=O)Nc1cc(-c2cccc(F)c2)sc1C(=O)N[C@H]1CCCNC1 [AZD7762] (partner 0.2 µM)
5. C[C@@H]1CN(CC(=O)Nc2ccc3c(c2)Cc2cccc(-c4cc(=O)cc(N5CCOCC5)o4)c2S3)C[C@H](C)O1 + CC1(C)CCC(c2ccc(Cl)cc2)=C(CN2CCN(c3ccc(C(=O)NS(=O)(=O)c4ccc(N[C@H](CCN5CCOCC5)CSc5ccccc5)c(S(=O)(=O)C(F)(F)F)c4)cc3)CC2)C1 [Navitoclax] (partner 0.5 µM)
6. COc1cc(N2CCC(C(N)=O)CC2)ccc1Nc1nc(N)c(Cl)c(Nc2ccccc2S(=O)(=O)C(C)C)n1 [HG-5-88-01] + O=C(c1cc(Cc2n[nH]c(=O)c3ccccc23)ccc1F)N1CCN(C(=O)C2CC2)CC1 [Olaparib] (partner 8 µM)
7. COc1cc(N2CCC(C(N)=O)CC2)ccc1Nc1nc(N)c(Cl)c(Nc2ccccc2S(=O)(=O)C(C)C)n1 [HG-5-88-01] + COc1cccc2cc(-c3nc([C@H]4CC[C@H](C(=O)O)CC4)n4ncnc(N)c34)[nH]c12 [OSI-027] (partner 0.5 µM)

1: 0.664; 2: 0.986; 3: 0.407; 4: 0.362; 5: 1.16; 6: 0.487; 7: 0.631

Provenance of the data: the supplement of paper PMC10307832
